target: HCV NS5B polymerase (Hepatitis C virus genotype 1b)
Sequence (P26663 2420-3010): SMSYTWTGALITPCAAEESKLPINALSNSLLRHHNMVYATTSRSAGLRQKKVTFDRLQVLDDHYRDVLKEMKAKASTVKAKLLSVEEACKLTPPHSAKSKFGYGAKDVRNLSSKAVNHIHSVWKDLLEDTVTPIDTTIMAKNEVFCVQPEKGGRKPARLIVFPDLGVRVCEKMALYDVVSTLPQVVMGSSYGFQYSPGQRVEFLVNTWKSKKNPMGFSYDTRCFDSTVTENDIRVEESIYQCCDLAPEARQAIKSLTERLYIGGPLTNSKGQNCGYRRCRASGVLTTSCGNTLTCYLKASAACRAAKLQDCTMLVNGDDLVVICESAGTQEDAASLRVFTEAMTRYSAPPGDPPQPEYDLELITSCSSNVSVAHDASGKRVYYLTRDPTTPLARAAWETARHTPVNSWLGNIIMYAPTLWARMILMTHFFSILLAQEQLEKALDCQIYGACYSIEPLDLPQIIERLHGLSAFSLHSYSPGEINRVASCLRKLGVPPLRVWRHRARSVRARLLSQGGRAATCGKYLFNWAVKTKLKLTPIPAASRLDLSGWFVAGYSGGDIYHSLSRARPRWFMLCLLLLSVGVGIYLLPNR
// reported IC50 for each item listed

| molecule | IC50 |
| --- | --- |
| CC(C)CCc1nn(CCC(C)C)c(=O)c(C2=NS(=O)(=O)c3cc(OCC(N)=O)ccc3N2)c1O [Compound 51] | < 10 µM |
| COc1ccc2c(c1)S(=O)(=O)NC(c1c(O)c(-c3cccn3C)nn(CCC(C)C)c1=O)=N2 [Compound 28] | 10 to 50 µM |
| CCCCn1nc(-c2cccs2)c(O)c(C2=Nc3ccc(OC)cc3S(=O)(=O)N2)c1=O [Compound 17] | < 10 µM |
| COc1ccc2c(c1)S(=O)(=O)NC(c1c(O)c(-c3nccs3)nn(CCC(C)C)c1=O)=N2 [Compound 54] | < 10 µM |
| CCCCn1nc(C(C)(C)CO)c(O)c(C2=Nc3ccc(OC)cc3S(=O)(=O)N2)c1=O [Compound 14] | 10 to 50 µM |
| COc1ccc2c(c1)S(=O)(=O)NC(c1c(O)c(-c3ccco3)nn(CCC(C)C)c1=O)=N2 [Compound 32] | < 10 µM |
| CCCc1nn(CCC(C)C)c(=O)c(C2=Nc3ccc(O)cc3S(=O)(=O)N2)c1O [Compound 46] | < 10 µM |

All figures here come from patent US20060189602A1.
